The compounds listed here are annotated with their normalized growth.
assay_overview: chemical genetic growth profiling, strain panel (AID 1159580);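 also: tested at 20 µM; growth read once vehicle control cultures reached saturation at 30 °C; 1 = growth at the plate median or of vehicle wells; lower values mean less growth of the strain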
assay_setup: S. cerevisiae deletion strains, growth OD, locus YHR079C, strain IRE1, hits give low values
About 2,000 (36%) of roughly 5,500 compounds were called active. Not shown: some 18% with an inconclusive outcome. The list shows a part of the results.

Take a look at these entries with their results.
{"columns": ["compound", "normalized growth"],
 "data": [
  ["O=c1c(O)c(-c2ccc(O)cc2O)oc2cc(O)cc(O)c12", "0.968 (inactive)"],
  ["CC(=O)O[C@@H]1CC2C(C)(C)C(=O)C=C[C@]2(C)C2CC[C@@]3(C)[C@H](c4ccoc4)OC(=O)[C@H]4O[C@]43[C@@]21C (stereo partly specified)", "0.994 (inactive)"],
  ["CC(=O)OC(C)C[N+](C)(C)C (stereo unspecified)", "1 (inactive)"],
  ["CCOC(=O)c1c(C)cc(O)cc1O", "0.918 (inactive)"],
  ["CCOC(=O)c1c(C)cc(OC)cc1O", "0.956 (inactive)"]
]}

Task: # input compound: `O=c1c(O)c(-c2ccc(O)c(O)c2)oc2c(O[C@@H]3O[C@H](CO)[C@H](O)[C@@H](O)[C@H]3O)c(O)cc(O)c12` ; wanted: its normalized growth
Result: 0.886 (inactive)

Task: So what's the measured normalized growth for this one? `Cc1cc(OC(=O)c2c(C)cc(O)cc2O)cc(O)c1C(=O)O`
Result: 0.968 (inactive)

Task: // query normalized growth value for entry `COc1ccc(-c2cc(=O)c3c(O)cc(O[C@@H]4O[C@H](CO[C@H]5O[C@H](C)[C@@H](O)[C@H](O)[C@@H]5O)[C@@H](O)[C@H](O)[C@H]4O)cc3o2)cc1O`
Result: 0.996 (inactive)

Task: For the compound `CCC(=O)c1c(O)cc(O)cc1O` , what normalized growth is on record?
Result: 1.03 (inactive)

Task: Bench note: what normalized growth did CC(=O)[C@@]1(O)CCC2C3C[C@H](C)C4=CC(=O)C=CC4(C)[C@@]3(F)[C@@H](O)C[C@@]21C (stereo partly specified) show?
Result: 0.971 (inactive)

Task: # query: normalized growth of entry N#Cc1nn(-c2c(Cl)cc(C(F)(F)F)cc2Cl)c(N)c1S(=O)C(F)(F)F (stereo unspecified)
Result: 1.02 (inactive)

Task: Any idea what normalized growth was measured for `Oc1c(Br)cc(Br)cc1C=Nc1ccccn1` ?
Result: 0.135 (active)

----------
assay_overview: chemical genetic growth profiling, strain panel (AID 1159580)
assay_setup: S. cerevisiae deletion strains, growth OD, locus YJR066W, strain TOR1, hits give low values
The campaign covered roughly 5,500 compounds. About 2,000 (36%) were called active. Roughly 18% stayed inconclusive and do not appear here. This is one part of the list.
observed_property: normalized growth
The response must contain the number and no unit.

{"columns": ["molecule", "observed_value"],
 "data": [
  ["CC1CCC2(OC1)OC1CC3C4CC[C@H]5C[C@@H](O)CC[C@]5(C)C4CC(=O)[C@]3(C)C1C2C (some centres not stated)", 0.927],
  ["CC(C)c1c(O)ccc2c1CCC1C(C)(C)CCC[C@]21C (some centres not stated)", 0.709]
]}

Task: Look up normalized growth: C[C@H]1O[C@H](OC2[C@@H](O)[C@@H](O)C(O)[C@H](O)[C@H]2O)[C@@H](N)C[C@@H]1N=C(N)C(=O)O (some centres not stated)
Result: 0.928

Task: Value lookup for normalized growth; key = CC(=O)Oc1ccc2c(c1C(C)C)CCC1C(C)(C)CCC[C@]21C (some centres not stated)
Result: 0.918

Task: Fill in the blank: the reported normalized growth of `NC(=O)OCC(COC(N)=O)c1ccccc1` is ____.
Result: 0.932

Task: // returns reported normalized growth for input C[C@]12C=CC(=O)C=C1CCC1C2[C@@H](O)C[C@@]2(C)C1CC[C@]2(O)C(=O)COC(=O)CCC(=O)O (some centres not stated)
Result: 0.931

Task: Query: normalized growth; subject: COC(=O)[C@@]1(C)CCC[C@]2(C)c3ccc(O)c(C(C)C)c3CCC12 (some centres not stated)
Result: 0.689

Task: Consider the molecule CC1CC[C@]2(NC1)O[C@H]1CC3C4CC[C@H]5C[C@@H](O)CC[C@]5(C)C4CC[C@]3(C)[C@H]1[C@@H]2C (some centres not stated) and give its measured normalized growth.
Result: 0.471

Task: Which value of normalized growth has been reported for `O=C1Nc2ccccc2/C1=C\c1c(Cl)cccc1Cl` in the records?
Result: 1.04

Task: Query: normalized growth; subject: `O=C(O[C@@H]1Cc2c(O)cc(O)cc2O[C@@H]1c1cc(O)c(=O)c2c(O)c(O)cc([C@H]3Oc4cc(O)cc(O)c4C[C@H]3O)c2c1)c1cc(O)c(O)c(O)c1`
Result: 0.969

Task: Data request, read-out normalized growth, for C[C@@H]1CC[C@@]2(OC1)O[C@H]1CC3C4CC[C@H]5C[C@@H](O)CC[C@]5(C)C4CC[C@]3(C)[C@H]1[C@@H]2C (some centres not stated)
Result: 0.945

Task: Quick one: normalized growth of CC1CC[C@@]2(OC1)O[C@H]1CC3C4CC[C@@H]5C[C@@H](O)CC[C@]5(C)C4CC[C@]3(C)[C@H]1[C@@H]2C (some centres not stated) ?
Result: 0.937

----------
assay_overview: chemical genetic growth profiling, strain panel (AID 1159580);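 also: tested at 20 µM; growth read once vehicle control cultures reached saturation at 30 °C; 1 = growth at the plate median or of vehicle wells; lower values mean less growth of the strain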
assay_setup: S. cerevisiae deletion strains, growth OD, locus YOL147C, strain pex11, hits give low values
The campaign covered roughly 5,500 compounds. About 2,000 (36%) were called active. Another 18% or so got no clear call; they are omitted. The list shows a part of the results.
observed_property: normalized growth
When you answer, write just the number.

Some solved entries appear below for comparison.
{"columns": ["molecule", "observed_value"],
 "data": [
  ["NC(=O)CN1CCCC1=O", 1.01],
  ["NC(=O)c1ncn([C@@H]2O[C@H](CO)[C@@H](O)[C@H]2O)n1", 0.981]
]}

Task: May I ask what normalized growth has been recorded for OCC(O)C(O)C(O)C(O)C(O)CO (stereo unspecified) ?
Result: 0.998

Task: State the recorded normalized growth for this entry: `CCc1cccc(CC)c1N(COC)C(=O)CCl`
Result: 1.02

Task: Query (molecule): NC(CSCSCC(N)C(=O)O)C(=O)O (stereo unspecified) ; field requested: normalized growth
Result: 0.991

Task: I would be grateful if you could share the reported normalized growth for COC(=O)C1OC(=O)C2OC23C1(C)CCC1C2(C)C(OC(C)=O)CC(OC(C)=O)C(C)(C)C2CC(=O)C13C (stereo unspecified) .
Result: 0.99

----------
assay_overview: chemical genetic growth profiling, strain panel (AID 1159580);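 also: tested at 20 µM; growth read once vehicle control cultures reached saturation at 30 °C; 1 = growth at the plate median or of vehicle wells; lower values mean less growth of the strain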
assay_setup: S. cerevisiae deletion strains, growth OD, locus YLR058C, strain SHM2, hits give low values
The campaign covered roughly 5,500 compounds. About 2,000 (36%) were called active. Inconclusive results (about 18%) are left out. Some of the results follow.
# note: exactly 1 is not below, so it is NOT MET; use MET for normalized growth strictly under it

{"columns": ["compound", "classification"],
 "data": [
  ["CC(CC(O)C1OC1(C)C)[C@@H]1CCC2(C)C3=CCC4C(C)(C)C(=O)CCC4(C)C3CC[C@@]12C (stereo not given in full)", "NOT MET"]
]}

Next item in the queue.
Task: Please let me know if CC(C)C1COc2cc3oc(=O)ccc3cc2O1 (stereo not given) shows normalized growth below 1.
Result: MET

----------
assay_overview: chemical genetic growth profiling, strain panel (AID 1159580);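 also: tested at 20 µM; growth read once vehicle control cultures reached saturation at 30 °C; 1 = growth at the plate median or of vehicle wells; lower values mean less growth of the strain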
assay_setup: S. cerevisiae deletion strains, growth OD, locus YOR070C, strain gyp1, hits give low values
Screen size: about 5,500 compounds; about 2,000 (36%) were called active. Another 18% or so got no clear call; they are omitted. The list shows a part of the results.
The reader will find reported normalized growth values listed item by item below.
Give the figure by itself; no unit, no explanation.

{"columns": ["compound", "observed_property", "observed_value"],
 "data": [
  ["CC(CC(C(N)=O)(c1ccccc1)c1ccccc1)N(C)C (stereo not given)", "normalized growth", 0.99],
  ["CC[n+]1c(-c2ccccc2)c2cc(N)ccc2c2ccc(N)cc21", "normalized growth", 0.967]
]}

Task: Sample CC(C)N(CCC(C(N)=O)(c1ccccc1)c1ccccn1)C(C)C (stereo not given) — what was its normalized growth?
Result: 0.0654

Task: Given the entry CC1CC[C@]2(NC1)O[C@H]1CC3C4CC[C@H]5C[C@@H](O)CC[C@]5(C)C4CC[C@]3(C)[C@H]1[C@@H]2C (stereo not given in full) , report its measured normalized growth.
Result: 0.0794

Task: Would you mind telling me what normalized growth value was observed for C=C1CCC2(OC1)OC1CC3C4CC=C5CC(O)CC(O)C5(C)C4CCC3(C)C1C2C (stereo not given) ?
Result: 0.997

meta.source: PubChem BioAssay AID1159580
